Attribution: paper PMC8445441

Test system: P. aeruginosa PA14
Test: microbe, parasite or virus in culture
Design: unit not given beside the values
Conditions: strain PA14; with D-11 at MICbc 4; unit not given
Description: The MIC tests were performed in triplicate using broth microdilution in accordance with Clinical and Laboratory Standards Institute (CLSI) recommendations (http://iacld.ir/DL/public/CLSI-2018-M100-S28.pdf). […] The fractional inhibitory concentration (FIC) indices were calculated using the previously described formula FICI = FICa + FICb = MICac/MICa + MICbc/MICb. […]
Positions of bridges follow the written chain, without caps; N, C: chain ends. Non-standard residues stand in square brackets, D forms with d. Residues, ends and D or L forms follow the SMILES beside them. *: point of attachment. X1 = CC[C@H](C)CCCCC(=O)*; Dab = NCC[C@H](N)C(=O)O
Lab note: cut-off is 2. Strictly less in MICac: MIC of the antibiotic in the combination is rule met. Exactly 2 or more is rule not met.

Example entries begin here.
compound: CN(C)c1cc(NC(=O)CNC(C)(C)C)c(O)c2c1C[C@H]1C[C@H]3[C@H](N(C)C)C(O)=C(C(N)=O)C(=O)[C@@]3(O)C(O)=C1C2=O
target-entity: P. aeruginosa PA14
category-label: rule met
--
compound: CC[C@H](C)CCCCC(=O)N[C@@H](CCN)C(=O)N[C@H](C(=O)N[C@@H](CCN)C(=O)N[C@H]1CCNC(=O)[C@H]([C@@H](C)O)NC(=O)[C@H](CCN)NC(=O)[C@H](CCN)NC(=O)[C@H](CC(C)C)NC(=O)[C@@H](CC(C)C)NC(=O)[C@H](CCN)NC1=O)[C@@H](C)O [Colistin] (X1-[Dab]T[Dab][Dab][Dab][dL]L[Dab][Dab]T; lactam 4-C (inferred); N-terminus assumed)
target-entity: P. aeruginosa PA14
category-label: rule met
--
compound: CC[C@H]1OC(=O)[C@H](C)[C@@H](O[C@H]2C[C@@](C)(OC)[C@@H](O)[C@H](C)O2)[C@H](C)[C@@H](O[C@@H]2O[C@H](C)C[C@H](N(C)C)[C@H]2O)[C@](C)(O)C[C@@H](C)CN(C)[C@H](C)[C@@H](O)[C@]1(C)O
target-entity: P. aeruginosa PA14
category-label: rule not met
--
compound: CO[C@H]1/C=C/O[C@@]2(C)Oc3c(C)c(O)c4c(O)c(c(/C=N/N5CCN(C6CCCC6)CC5)c(O)c4c3C2=O)NC(=O)/C(C)=C\C=C\[C@H](C)[C@H](O)[C@@H](C)[C@@H](O)[C@@H](C)[C@H](OC(C)=O)[C@@H]1C
target-entity: P. aeruginosa PA14
category-label: rule not met

Input: Confirm or reject: MICac: MIC of the antibiotic in the combination of CCn1cc(C(=O)O)c(=O)c2ccc(C)nc21 lies strictly below 2
Output: rule not met

Input: Confirm or reject: MICac: MIC of the antibiotic in the combination of CC[C@H]1OC(=O)[C@H](C)[C@@H](O[C@H]2C[C@@](C)(OC)[C@@H](O)[C@H](C)O2)[C@H](C)[C@@H](O[C@@H]2O[C@H](C)C[C@H](N(C)C)[C@H]2O)[C@](C)(OC)C[C@@H](C)C(=O)[C@H](C)[C@@H](O)[C@]1(C)O lies strictly below 2
Output: rule not met

Input: Confirm or reject: MICac: MIC of the antibiotic in the combination of CC[C@H](C)CCCCC(=O)N[C@@H](CCN)C(=O)N[C@H](C(=O)N[C@@H](CCN)C(=O)N[C@H]1CCNC(=O)[C@H]([C@@H](C)O)NC(=O)[C@H](CCN)NC(=O)[C@H](CCN)NC(=O)[C@H](CC(C)C)NC(=O)[C@@H](Cc2ccccc2)NC(=O)[C@H](CCN)NC1=O)[C@@H](C)O [Polymyxin B] (X1-[Dab]T[Dab][Dab][Dab][dF]L[Dab][Dab]T; lactam 4-C (inferred); N-terminus assumed) lies strictly below 2
Output: rule met
